# Lookup of reported pIC50 keyed by entry
biological target: Histone deacetylase 11 (Homo sapiens, UniProt Q96DB2); experiment: Inhibition of recombinant human HDAC11 preincubated for 10 mins followed by substrate addition by fluorescence based analysis
Sequence (Q96DB2 whole entry): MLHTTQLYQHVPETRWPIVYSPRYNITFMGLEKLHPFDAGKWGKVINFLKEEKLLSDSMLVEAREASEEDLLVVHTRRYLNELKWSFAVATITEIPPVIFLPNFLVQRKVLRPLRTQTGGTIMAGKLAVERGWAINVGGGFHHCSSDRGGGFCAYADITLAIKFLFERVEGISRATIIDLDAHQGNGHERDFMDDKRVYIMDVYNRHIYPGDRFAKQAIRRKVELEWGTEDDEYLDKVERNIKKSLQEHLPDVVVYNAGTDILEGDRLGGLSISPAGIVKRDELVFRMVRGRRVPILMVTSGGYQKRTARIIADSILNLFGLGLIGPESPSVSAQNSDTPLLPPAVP
pIC50: −log10 of the molar value.

SMILES_STRUCTURE	TARGET_DESC	pIC50
CCCNNC(=O)c1cnc(N2CCN(Cc3c[nH]c4ccccc34)CC2)nc1	Histone deacetylase 11 (Homo sapiens, UniProt Q96DB2)	6.24
CCCCCCNNC(=O)c1ccc(-c2ccc(CNC(C)=O)cc2)cc1	Histone deacetylase 11 (Homo sapiens, UniProt Q96DB2)	6.74
CCCCCCNNC(=O)c1cnc(N2CCN(Cc3c[nH]c4ccccc34)CC2)nc1	Histone deacetylase 11 (Homo sapiens, UniProt Q96DB2)	7.39
CCCCCCNNC(=O)c1cccc(NCc2ccccc2)c1	Histone deacetylase 11 (Homo sapiens, UniProt Q96DB2)	5.07
CCCNNC(=O)c1ccc(-c2ccc(CNC(C)=O)cc2)cc1	Histone deacetylase 11 (Homo sapiens, UniProt Q96DB2)	5.74
CCCNNC(=O)c1cnc(NCc2ccccc2)nc1	Histone deacetylase 11 (Homo sapiens, UniProt Q96DB2)	5.70

###

molecular target: Histone deacetylase 2 (Homo sapiens); experiment: Inhibition of recombinant human HDAC2 using p53 (Ac-RHKK(Acetyl)-AMC) as substrate preincubated for 5 mins followed by substrate addition and measured after 30 mins by fluorescence based analysis
Sequence (Q92769 whole entry): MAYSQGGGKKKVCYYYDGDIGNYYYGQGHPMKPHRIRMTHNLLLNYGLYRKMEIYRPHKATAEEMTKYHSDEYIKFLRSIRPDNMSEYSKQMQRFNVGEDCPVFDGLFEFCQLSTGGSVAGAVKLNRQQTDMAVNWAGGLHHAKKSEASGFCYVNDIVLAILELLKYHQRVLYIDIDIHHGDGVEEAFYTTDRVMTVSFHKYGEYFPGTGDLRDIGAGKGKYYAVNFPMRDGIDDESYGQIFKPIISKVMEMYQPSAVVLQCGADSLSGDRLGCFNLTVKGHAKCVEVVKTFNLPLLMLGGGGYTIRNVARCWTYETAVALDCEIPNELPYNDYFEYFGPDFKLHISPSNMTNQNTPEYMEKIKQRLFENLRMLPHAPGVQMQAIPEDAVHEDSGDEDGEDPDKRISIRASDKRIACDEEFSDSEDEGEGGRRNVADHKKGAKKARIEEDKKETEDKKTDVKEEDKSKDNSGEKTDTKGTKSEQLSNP
MEASUREMENT_LABEL: IC50 (nM)

SMILES_STRUCTURE	UNIT_DESCRIPTOR	COMPARISON_SIGN	NUMERIC_READOUT
CCCCCCNNC(=O)c1cnc(NCCc2ccccc2)nc1	nM	=	12000
CCCCCCNNC(=O)c1cnc(N2CCN(Cc3cn(C)c4ccccc34)CC2)nc1	nM	=	330
CCCCCCNNC(=O)c1cnc(N2CCN(Cc3c[nH]c4ccccc34)CC2)nc1	nM	=	310
CCCCNNC(=O)c1ccc(-c2ccc(CNC(C)=O)cc2)cc1	nM	=	1100
CCCCCCNNC(=O)c1ccc(-c2ccc(CNC(C)=O)cc2)cc1	nM	=	12000
CCCNNC(=O)c1cnc(N2CCN(C)CC2)nc1	nM	=	2400
CCCNNC(=O)c1cnc(NCc2ccc(CNC(C)=O)cc2)nc1	nM	=	920
CCCCCCNNC(=O)c1cnc(NCc2cccc3ccccc23)nc1	nM	>	20000
CCCNNC(=O)c1cnc(N2CCN(Cc3c[nH]c4ccccc34)CC2)nc1	nM	=	1100
CCCCCCNNC(=O)c1cnc(NCc2ccc(CNC(C)=O)cc2)nc1	nM	=	4500
CCCCCCNNC(=O)c1cnc(N2CCN(CCc3c[nH]c4ccccc34)CC2)nc1	nM	=	1400

###

# Lookup of reported pIC50 keyed by entry
target: UniProt P56524
Sequence (P56524 whole entry): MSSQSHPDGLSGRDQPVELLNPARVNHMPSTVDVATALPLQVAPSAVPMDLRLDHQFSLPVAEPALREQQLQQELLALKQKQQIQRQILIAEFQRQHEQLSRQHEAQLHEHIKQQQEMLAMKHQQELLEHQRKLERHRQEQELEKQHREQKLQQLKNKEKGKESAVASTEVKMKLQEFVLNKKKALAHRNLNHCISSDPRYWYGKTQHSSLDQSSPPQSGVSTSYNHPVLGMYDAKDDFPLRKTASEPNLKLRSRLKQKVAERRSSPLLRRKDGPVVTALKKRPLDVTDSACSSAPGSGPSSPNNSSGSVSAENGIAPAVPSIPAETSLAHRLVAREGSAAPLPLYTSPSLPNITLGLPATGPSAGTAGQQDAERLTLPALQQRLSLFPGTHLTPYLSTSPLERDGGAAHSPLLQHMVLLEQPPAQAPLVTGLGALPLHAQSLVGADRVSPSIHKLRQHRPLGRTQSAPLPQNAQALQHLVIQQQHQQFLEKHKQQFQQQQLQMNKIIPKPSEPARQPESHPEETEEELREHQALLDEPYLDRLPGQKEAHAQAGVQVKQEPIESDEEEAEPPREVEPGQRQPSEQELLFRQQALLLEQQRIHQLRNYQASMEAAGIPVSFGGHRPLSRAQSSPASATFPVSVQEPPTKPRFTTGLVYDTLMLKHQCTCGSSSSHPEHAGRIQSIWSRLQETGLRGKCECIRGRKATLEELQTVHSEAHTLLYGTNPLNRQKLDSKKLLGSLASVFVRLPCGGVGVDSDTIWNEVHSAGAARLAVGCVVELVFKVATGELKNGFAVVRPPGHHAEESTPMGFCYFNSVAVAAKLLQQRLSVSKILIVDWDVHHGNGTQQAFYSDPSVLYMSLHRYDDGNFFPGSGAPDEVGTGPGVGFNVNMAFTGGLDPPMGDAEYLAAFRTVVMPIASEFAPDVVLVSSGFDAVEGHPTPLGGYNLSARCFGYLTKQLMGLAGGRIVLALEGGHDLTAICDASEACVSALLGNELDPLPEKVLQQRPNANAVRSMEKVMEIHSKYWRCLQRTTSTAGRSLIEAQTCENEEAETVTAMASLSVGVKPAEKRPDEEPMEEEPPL
pIC50: −log10 of the molar value.

SMILES_STRUCTURE	pIC50
CCCNNC(=O)c1cnc(NCc2ccccc2)nc1	< 4.70
CCCCCCNNC(=O)c1ccc(-c2ccc(CNC(C)=O)cc2)cc1	< 4.70

###

biological target: Histone deacetylase 1 (Homo sapiens, UniProt Q13547); test: Inhibition of recombinant human HDAC1 at 10 uM using p53 (Ac-RHKK(Acetyl)-AMC) as substrate preincubated for 5 mins followed by substrate addition and measured after 90 mins by fluorescence based analysis relative to control; conditions: time 95.0 min
Sequence (Q13547 whole entry): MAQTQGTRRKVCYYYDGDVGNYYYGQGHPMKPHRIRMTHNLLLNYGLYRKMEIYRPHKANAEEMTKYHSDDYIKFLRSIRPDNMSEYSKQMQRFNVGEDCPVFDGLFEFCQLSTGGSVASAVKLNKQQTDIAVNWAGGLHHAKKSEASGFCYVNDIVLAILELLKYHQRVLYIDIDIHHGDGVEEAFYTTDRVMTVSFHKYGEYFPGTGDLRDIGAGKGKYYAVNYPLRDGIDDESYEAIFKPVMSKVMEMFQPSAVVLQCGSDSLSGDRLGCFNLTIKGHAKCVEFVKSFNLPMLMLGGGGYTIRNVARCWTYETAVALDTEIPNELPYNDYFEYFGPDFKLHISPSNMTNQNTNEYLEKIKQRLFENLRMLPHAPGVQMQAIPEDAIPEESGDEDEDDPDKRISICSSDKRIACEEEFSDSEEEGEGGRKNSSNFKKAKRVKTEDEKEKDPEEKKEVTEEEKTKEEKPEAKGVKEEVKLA

SMILES_STRUCTURE	UNIT_DESCRIPTOR	inhibition
CCCNNC(=O)c1cnc(NCc2cc(Cl)ccc2Cl)nc1	%	88
CCCNNC(=O)c1cnc(NCc2ccccc2Cl)nc1	%	89
CCCNNC(=O)c1cnc(NCCc2ccccc2)nc1	%	85
CCCNNC(=O)c1cnc(NCc2ccc(Cl)cc2)nc1	%	92
CCCNNC(=O)c1cnc(NCc2cccc3ccccc23)nc1	%	91
CCCCCCNNC(=O)c1ccc(C)c(NCc2ccccc2)c1	%	35
CCCCNNC(=O)c1cnc(NCc2ccccc2)nc1	%	85

Values from ChEMBL document CHEMBL5150060
